- target.system: AgSho1
- assay.summary: SPOT peptide array binding signal intensity (averaged, normalized) (arbitrary units (background-subtracted, floor 0; scale differs between SH3 domains)); higher = stronger binding of the SH3 domain to the peptide
Entries and their SPOT peptide array binding signal intensity values follow.
measurement.type: SPOT peptide array binding signal intensity

>>> df
            binder  bound_type  recorded_measurement
0  NFLRLLIGLPSQNEL           =                   263
1  QNTPPLPPKPKSPHL           =                    54
2  HVRRSILALPLGVLL           =                    64
3  VTHRLRISIPGITGR           =                   146
4  VRTRRRPPPPPIPST           ≤                     0
5  NTMKKRPAPPSLPSL           =                   496
